Target: CD38 (Homo sapiens, UniProt P28907)
Sequence (P28907 43-300 limits assumed): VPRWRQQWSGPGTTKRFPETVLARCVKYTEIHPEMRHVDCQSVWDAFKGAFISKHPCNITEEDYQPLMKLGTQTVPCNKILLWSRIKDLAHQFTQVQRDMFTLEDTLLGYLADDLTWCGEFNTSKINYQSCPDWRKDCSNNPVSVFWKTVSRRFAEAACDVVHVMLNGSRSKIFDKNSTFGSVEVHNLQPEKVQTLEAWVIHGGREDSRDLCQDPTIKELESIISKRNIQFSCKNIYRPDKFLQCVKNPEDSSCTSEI
pIC50: −log10 of the molar value.
recorded_endpoint: pIC50

Query :: Query pIC50 for Cc1cc(Nc2ncc(Cl)c(Nc3ccccc3S(=O)(=O)C(C)C)n2)c(OC(C)C)cc1C1CCNCC1
Result :: < 4.30
